# System: Echinochloa crus-galh (ECHCG)
# EXPERIMENT_DESCRIPTION: Pre-emergence herbicidal glasshouse test (Table B1)
# Format: in vivo
# CONDITION_INFO: applied at 125 g/ha, evaluated after 13 days
Kindly supply the reported PRE Application ECHCG, percentage damage on five-point scale values for the records listed here.

*Q* Give me measured PRE Application ECHCG, percentage damage on five-point scale, please, for this compound: CCC(C)C(=O)Nc1c(OC(F)(F)F)ccc(C(=O)Nc2nnnn2C)c1Cl (stereo not drawn)
*A* 5 (5=80-100%)

*Q* Give me measured PRE Application ECHCG, percentage damage on five-point scale, please, for this compound: `Cc1cccnc1C(=O)Nc1c(OC(F)F)ccc(C(=O)Nc2nnnn2C)c1Cl`
*A* 5 (5=80-100%)

*Q* Give me measured PRE Application ECHCG, percentage damage on five-point scale, please, for this compound: `CCn1nnnc1NC(=O)c1ccc(OC(F)(F)F)c(NC(=O)c2ccccc2OC)c1Cl`
*A* 3 (3=40-59%)

*Q* Give me measured PRE Application ECHCG, percentage damage on five-point scale, please, for this compound: `COCCCC(=O)Nc1c(OC(F)(F)F)ccc(C(=O)Nc2nnnn2C)c1Cl`
*A* 5 (5=80-100%)

*Q* Give me measured PRE Application ECHCG, percentage damage on five-point scale, please, for this compound: `Cc1c(C(F)F)c(C(=O)Nc2c(OC(F)F)ccc(C(=O)Nc3nnnn3C)c2Cl)nn1C`
*A* 5 (5=80-100%)

*Q* Give me measured PRE Application ECHCG, percentage damage on five-point scale, please, for this compound: `Cn1nnnc1NC(=O)c1ccc(OC(F)(F)F)c(NC(=O)C(C)(F)F)c1Cl`
*A* 3 (3=40-59%)

*Q* Give me measured PRE Application ECHCG, percentage damage on five-point scale, please, for this compound: `CCOCCC(=O)Nc1c(OC(F)(F)F)ccc(C(=O)Nc2nnnn2CC)c1Cl`
*A* 5 (5=80-100%)

*Q* Give me measured PRE Application ECHCG, percentage damage on five-point scale, please, for this compound: `CCCOCC(=O)Nc1c(OC(F)(F)F)ccc(C(=O)Nc2nnnn2CC)c1Cl`
*A* 4 (4=60-79%)

*Q* Give me measured PRE Application ECHCG, percentage damage on five-point scale, please, for this compound: CCN(C(=O)C(C)F)c1c(OC(F)F)ccc(C(=O)Nc2nnnn2C)c1Cl (stereo not drawn)
*A* 5 (5=80-100%)

*Q* Give me measured PRE Application ECHCG, percentage damage on five-point scale, please, for this compound: `CCC(=O)Nc1c(OC(F)(F)F)ccc(C(=O)Nc2nnnn2C)c1C`
*A* 5 (5=80-100%)

*Q* Give me measured PRE Application ECHCG, percentage damage on five-point scale, please, for this compound: `CCC(=O)N(CC)c1c(OC(F)F)ccc(C(=O)Nc2nnnn2C)c1Cl`
*A* 3 (3=40-59%)

*Q* Give me measured PRE Application ECHCG, percentage damage on five-point scale, please, for this compound: `CCn1nnnc1NC(=O)c1ccc(OC(F)(F)F)c(NC(=O)CC(F)(F)F)c1Cl`
*A* 5 (5=80-100%)

*Q* Give me measured PRE Application ECHCG, percentage damage on five-point scale, please, for this compound: Cn1nnnc1NC(=O)c1ccc(OC(F)F)c(NC(=O)C2CC2(F)F)c1Cl (stereo not drawn)
*A* 3 (3=40-59%)

*Q* Give me measured PRE Application ECHCG, percentage damage on five-point scale, please, for this compound: `CC(C)OCC(=O)Nc1c(OC(F)(F)F)ccc(C(=O)Nc2nnnn2C)c1Cl`
*A* 3 (3=40-59%)

*Q* Give me measured PRE Application ECHCG, percentage damage on five-point scale, please, for this compound: `Cn1nnnc1NC(=O)c1ccc(OC(F)F)c(NC(=O)c2cc(C(F)(F)F)ccn2)c1Cl`
*A* 4 (4=60-79%)
